- Tested on: P12-Ichikawa
- protocolNotes: AUC of viability dose-response curve (% viability x log10 dose units); higher = less sensitive
- testSettings: RPMI 5 mM glucose + 10% FBS; 48 h
attributeMeasured: AUC of viability dose-response curve
One number for each entry.

Solved cases (8 shown):
- CCOC(CN1C(=O)[C@](CC(=O)Nc2ccc(C)cc2)(NC(=O)Nc2ccc(C)cc2)c2ccccc21)OCC: 461
- CCCC1=N[N](C)C2=C1\N=C(/NC2=O)C3=CC(=CC=C3OCC)[S+]([O-])(=O)N4CCN(C)CC4: 385
- NC(=O)c1cnc(-c2ccc(C3(N)CCC3)cc2)c(-c2ccccc2)c1: 448
- CNC1CCCN(c2c(F)cc3c(=O)c(C(=O)O)cn(C4CC4)c3c2OC)C1 (centres undefined): 441
- CN1\N=N/C2=C(N=C[N]2C1=O)C(N)=O: 466
- COc1ccccc1OCCNCC(O)COc1cccc2[nH]c3ccccc3c12 (centres undefined): 468
- COCCCOc1ccnc(C[S+]([O-])c2nc3ccccc3[nH]2)c1C (centres undefined): 450
- CC[C@H](NC(C)C)[C@H](O)c1ccc(O)c2[nH]c(=O)ccc12: 462

Lab note: next compound to report on.
AUC of viability dose-response curve for Clc1ccccc1C(c1ccccc1)(c1ccccc1)n1cccn1 ? 462
